Assay: NCI Yeast Anticancer Drug Screen. Data for the mlh1 rad18 strain (AID 175)
Conditions: S. cerevisiae mlh1 rad18 strain growth inhibition; at 50.0 µM
Compounds without any hit were thinned out: in the full panel of roughly 79,000, 15% have a hit. Calls of active or inactive are those of the source. Rule as the data show it: active = growth inhibition above about 70%; inactive = the rest.
Pick one: yes (1) = active, no (0) = inactive

# count of solved cases: 4
molecule	assigned.category
O=P1(c2ccccc2)NC2CCCCC2N1 (stereo not given)	no (0)
O=[P+](O)C(O)c1ccccc1 (stereo not given)	no (0)
CCCCOC(=O)c1ccccc1N	no (0)
CC1=C(CC/C(C)=C/CCC2(C)CCC([C@H](C)C(=O)O)OO2)C(C)(C)CCC1 (stereo not given in full) (tested in a mixture with another compound)	yes (1)

Next item in the queue.
Hi team, can someone confirm the assay call for CN(C)c1ccc(N=Nc2c([O-])ccc3ccccc23)cc1.[C-]#[O+].[C-]#[O+].[Ir] ?
no (0)

----------
Test: NCI Yeast Anticancer Drug Screen. Data for the cln2 rad14 strain (AID 165);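 also: 0% = growth equal to vehicle treated cultures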
Conditions: S. cerevisiae cln2 rad14 strain, at 5.0 µM (retest, dose inferred, filed as 0.5)
This is part of a sample that, as a whole, favours compounds with a hit. Of some 79,000 tested, about 15% had one in any assay. Calls of active or inactive are those of the source. No stated cut-off is given here; in the data, active means growth inhibition above about 70%; inactive means the rest.
Your answer must be one of the following: active, inactive

In [3]: df
Out[3]:
                                   molecule  assigned_category
0   O=[N+]([O-])c1ccc([N+](=O)[O-])c2nsnc12             active
1  CN(C)N(P(N)(Cl)(c1ccccc1)c1ccccc1)P(N)(Cl)(c1ccccc1)c1ccccc1           inactive
2                    O=[As](O)(O)CCc1ccccc1           inactive
3                        CCNC(=O)OOC(C)(C)C           inactive
4  [Cl-].[Cl-].[Cl-].[O-]c1cccc2cccnc12.[O-]c1cccc2cccnc12.[O]=[Mo]             active

Then this molecule:
Given O=C(O)C(O)(c1ccc(-c2ccccc2)cc1)c1ccc(-c2ccccc2)cc1 , state the outcome it received in this test.
inactive

----------
Assay: NCI Yeast Anticancer Drug Screen. Data for the rad50 strain (AID 155);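 also: 0% = growth of vehicle-only cultures of the same strain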
Details: S. cerevisiae rad50 strain growth inhibition; at 50.0 µM; stronger effect = higher value
This is part of a sample that, as a whole, favours compounds with a hit. Of some 79,000 tested, about 15% had one in any assay.
measured.endpoint: growth inhibition (%)
Just the number in %, nothing appended.

Give its growth inhibition value. Item: O.O=[Se](=O)(O)O.[NH-]C1CCCCC1[NH-].[Pt+2] (centres undefined)
-16.1

Endpoint output: growth inhibition of CNC(=O)C(CC(C)[N+](C)(C)C)(c1ccccc1)c1ccccc1 (centres undefined) . Value?
14.2

Item under review: CO/N=C1\CC(C)N2C(=O)C(C(C)C)NC(=O)C(NC(=O)c3c4nc5c(C(=O)NC6C(=O)NC(C(C)C)C(=O)N7C(C)CC(O)C7C(=O)N(C)CC(=O)N(C)C(C(C)C)C(=O)OC6C)ccc(C)c5oc-4c(C)c(=O)c3N)C(CO)OC(=O)C(C)N(C)C(=O)CN(C)C(=O)C12 (centres undefined) . Reported growth inhibition?
23.1

Value lookup for growth inhibition; key = [Cl][Pd]([Cl])([Cl])[Cl].[NH-]CC[NH-].[NH-]CC[NH-].[Pd+2]
28.7

----------
Assay: NCI Yeast Anticancer Drug Screen. Data for the sgs1 mgt1 strain (AID 161);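 also: 0% = growth of cultures given vehicle only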
Settings: S. cerevisiae sgs1 mgt1 strain, at 5.0 µM (retest, dose inferred, filed as 0.5)
The panel holds about 79,000 compounds, 15% with a hit somewhere; the sample as a whole holds those more often. Active and inactive are the calls of the source. Rule as the data show it: active = growth inhibition above about 70%; inactive = the rest.
Use one of these outcomes when replying: 1 (yes) = active, 0 (no) = inactive

Identify the outcome logged in this assay for the compound shown: c1ccc2c(c1)[O][Sn][O]2
0 (no)

Assay result, entry C[CH2][Sn]([O][Sn]([Cl])([CH2]C)[c]1ccccc1)[c]1ccccc1 (stereo not given) — outcome?
0 (no)

Assay outcome for O=C([CH-]C(=O)c1ccccc1)c1ccccc1.O=C([CH-]C(=O)c1ccccc1)c1ccccc1.[Nd+3].[OH-].[OH3+] : what was it?
0 (no)

Outcome logged for CCC[CH2][Sn-]([CH2]CCC)([CH2]CCC)[O]c1cc(Cl)c(Cl)cc1Cl in this assay:
1 (yes)

What is the recorded call for this compound in the test? NS(=O)(=O)CCl.[Hg]
0 (no)

Record request — test call for O=[N+]([O-])c1ccc(C2C3CC4C(OOC42)C3I)cc1 (stereo not given)
0 (no)

Dear all, I need the recorded test outcome for CC(C)C1(NC(=O)C2CC3c4cccc5[nH]cc(c45)CC3N(C)C2)OC2(O)C3CCCN3C(=O)C(Cc3ccccc3)N2C1=O (stereo not given) , thank you.
0 (no)

----------
Assay: NCI Yeast Anticancer Drug Screen. Data for the mlh1 rad18 strain (AID 175)
Conditions: S. cerevisiae mlh1 rad18 strain growth inhibition; at 5.0 µM (retest, dose inferred, filed as 0.5); stronger effect = higher value
Compounds without any hit were thinned out: in the full panel of roughly 79,000, 15% have a hit.
Classification field: enter condition met for growth inhibition values not below 20%, condition not met for values below it.

The following molecules have reported results that may help.
In [3]: df
Out[3]:
                                   molecule  assigned_category
0                         O=S(=O)(CCBr)CCBr      condition met
1                    O=S(=O)(F)c1ccc(Cl)cc1  condition not met
2                     [Cl][Hg][c]1ccc(Cl)s1      condition met
3  O=C(Nc1n[c]([Hg][Cl])[c]([Hg][Cl])s1)OCc1ccccc1      condition met
4  COc1cccc(C2N(Cc3ccc(N(CCCl)CCCl)cc3C)CCCN2Cc2ccc(N(CCCl)CCCl)cc2C)c1O  condition not met

hey, is growth inhibition for this one >= 20%? CC(=O)[O-].CC(=O)[O-].O=C(N/N=C/c1cc(Cl)cc(Cl)c1[OH2+])c1ccncc1.[Co+2]
condition not met

// inclusive: growth inhibition at least 20%? input: COc1c[c]([Hg][O]C(C)=O)c(OC)c(NC(=O)CC(C)=O)[c]1[Hg][O]C(C)=O
condition met

Tell me whether growth inhibition is at least 20% here: O=C(c1ccccc1)c1cc(CN(CCCl)CCCl)c(O)cc1O
condition not met

Could you tell me if the measured growth inhibition of NNc1ccccc1 reaches 20% or more?
condition not met

# bool: growth inhibition of O=[N+]([O-])O.c1ccc([As+](c2ccccc2)(c2ccccc2)c2ccccc2)cc1 >= 20%
condition met

Threshold query (growth inhibition >= 20%) on O=C(CBr)Nc1ccc(Cl)cc1
condition met

Threshold query (growth inhibition >= 20%) on C1=CC2CCC[N-]C2N1.C1=CC2CCC[N-]C2N1.[I][Pt+2][I] (stereo not given)
condition met

Evaluate O=[N+]([O-])c1cc(-c2ccccc2)ccc1O : growth inhibition at minimum 20%?
condition not met

API: above_or_equal(metric=growth inhibition, cutoff=20%) for item NC(=O)c1cc([N+](=O)[O-])c(Cl)c([N+](=O)[O-])c1
condition met

Form field: growth inhibition at least 20%? Entry: CN1CCN(c2ccc3nc(-c4ccc5nc(CCCc6ccc(N(CCCl)CCCl)cc6)[nH]c5c4)[nH]c3c2)CC1
condition met

Hi team, for O=C(CBr)c1ccncc1 , is the recorded growth inhibition at or above 20%?
condition met

Quick check: does CC(=O)C(CN(CC(C)C)CC(C)C)C(c1ccccc1)c1c(O)c2ccccc2oc1=O (stereo not given) have growth inhibition greater than or equal to 20%?
condition not met

Could you tell me if the measured growth inhibition of O=C(CF)CCl reaches 20% or more?
condition met

Could you tell me if the measured growth inhibition of COc1cc(C(CC(=O)N(CCCl)CCCl)c2ccc3c(c2)OCO3)cc(OC)c1OC (stereo not given) reaches 20% or more?
condition not met

I'd appreciate it if you could say whether O=C(C[n+]1ccccc1)C1CCc2ccccc2C1 (stereo not given) has growth inhibition at least equal to 20%.
condition not met

Could you please find out whether [CH3][Sn]([CH3])([S]CCS(=O)(=O)O)[S]CCS(=O)(=O)O has growth inhibition that meets 20% or exceeds it?
condition not met

# bool: growth inhibition of O=c1cccc(C2CC(CO)C3CCCCN3C2)[nH]1 (stereo not given) >= 20%
condition not met

Does the reported growth inhibition for COC1OC(CO)C(O)C(O)[CH]1[Hg][Cl] (stereo not given) fall at or above the 20% mark?
condition met

Given CCCCCc1cc(O)c(CCCC)c(O)c1 , state whether its growth inhibition is at least 20%.
condition not met

Could you tell me if the measured growth inhibition of CC12CCCCC1C(=O)C2(Cl)Cl (stereo not given) reaches 20% or more?
condition not met

Every entry's value here was drawn from PubChem BioAssay (NCI).
